Assay read-out IC50; system under study: UniProt:P56817.
Sequence (P56817 46-501): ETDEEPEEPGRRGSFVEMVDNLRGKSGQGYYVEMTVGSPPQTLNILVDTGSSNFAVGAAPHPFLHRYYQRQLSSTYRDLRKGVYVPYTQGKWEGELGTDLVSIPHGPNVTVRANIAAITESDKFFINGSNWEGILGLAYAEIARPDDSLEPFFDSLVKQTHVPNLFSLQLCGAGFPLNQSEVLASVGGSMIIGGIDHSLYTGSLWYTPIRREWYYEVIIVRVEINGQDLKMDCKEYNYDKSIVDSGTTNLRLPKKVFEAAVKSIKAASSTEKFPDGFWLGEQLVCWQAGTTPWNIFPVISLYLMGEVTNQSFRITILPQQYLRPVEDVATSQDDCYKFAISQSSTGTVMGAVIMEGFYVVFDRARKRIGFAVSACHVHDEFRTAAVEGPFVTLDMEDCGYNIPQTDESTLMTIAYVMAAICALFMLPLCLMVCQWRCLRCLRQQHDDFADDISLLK

INPUT: Using the record for COc1cccc(-c2cccc(C3(c4cnn(CC(F)(F)F)c4)N=C(N)N(C)C3=O)c2)c1 (stereo not shown) , report its IC50.
OUTPUT: 10 to 100 nM

INPUT: Here is the next molecule: CCC(=O)c1cc(C2(c3cccc(NC(=O)COC)c3)N=C(N)N(C)C2=O)cn1CC (stereo not shown)
OUTPUT: 10 to 100 nM

INPUT: Here is the next molecule: `CCC(=O)c1cc([C@]2(c3cccc(-c4cccnc4F)c3)N=C(N)N(C)C2=O)cn1CCF`
OUTPUT: 10 to 100 nM

INPUT: Here is the next molecule: `CCC(=O)c1cc([C@@]2(c3cccc(-c4cccnc4F)c3)N=C(N)N(C)C2=O)cn1CC(F)F`
OUTPUT: > 1000 nM

INPUT: Here is the next molecule: CCC(=O)c1cc(C2(c3cccc(-c4cccnc4F)c3)N=C(N)N(C)C2=O)cn1CC (stereo not shown)
OUTPUT: 10 to 100 nM

INPUT: Here is the next molecule: CCC(=O)c1cc(C2(c3cccc(-c4cccnc4F)c3)N=C(N)N(C)C2=O)cn1Cc1ccccc1 (stereo not shown)
OUTPUT: 10 to 100 nM

INPUT: Here is the next molecule: `COC(=O)c1cc([C@@]2(c3ccc(F)c(-c4cncnc4)c3)N=C(N)N(C)C2=O)cn1CC(F)(F)F`
OUTPUT: > 1000 nM

INPUT: Here is the next molecule: CN1C(=O)C(c2cccc(-c3cncnc3)c2)(c2cnn(C)c2)N=C1N (stereo not shown)
OUTPUT: 110 to 1000 nM

INPUT: Here is the next molecule: `CCC(=O)c1cc([C@]2(c3cccc(-c4cccnc4F)c3)N=C(N)N(C)C2=O)cn1CC`
OUTPUT: 10 to 100 nM

INPUT: Here is the next molecule: CCC(=O)c1cc([C@@]2(c3ccc(F)c(-c4cccnc4F)c3)N=C(N)N(C)C2=O)cn1CC [Example 183B]
OUTPUT: > 1000 nM

INPUT: Here is the next molecule: CCn1cc(C2(c3cccc(-c4cccnc4F)c3)N=C(N)N(C)C2=O)cc1C(=O)NC (stereo not shown)
OUTPUT: 10 to 100 nM

INPUT: Here is the next molecule: CCC(=O)c1cc(C2(c3cccc(-c4cccc(OC)c4)c3)N=C(N)N(C)C2=O)cn1CC(F)(F)F (stereo not shown)
OUTPUT: 10 to 100 nM

INPUT: Here is the next molecule: CCn1cc([C@@]2(c3cccc(-c4cccnc4F)c3)N=C(N)N(C)C2=O)cn1 [Example 44A]
OUTPUT: > 1000 nM

INPUT: Here is the next molecule: CCn1cc(C2(c3ccc(F)c(-c4cncnc4)c3)N=C(N)N(C)C2=O)cn1 (stereo not shown)
OUTPUT: 10 to 100 nM

INPUT: Here is the next molecule: COC(=O)c1cc(C2(c3cccc(-c4cccc(OC)c4)c3)N=C(N)N(C)C2=O)cn1CCF (stereo not shown)
OUTPUT: 10 to 100 nM

INPUT: Here is the next molecule: CCCCOc1cccc(C2(c3cc(C(=O)CC)n(CC)c3)N=C(N)N(C)C2=O)c1 (stereo not shown)
OUTPUT: 110 to 1000 nM

* * *

METRIC NAME: melting point

INPUT: Using the record for COc1ccc(F)cc1-c1cccc(C2(c3cnn(CC(F)(F)F)c3)N=C(N)N(C)C2=O)c1 (centres unmarked) , report its melting point.
OUTPUT: 104 to 106 °C

INPUT: Here is the next compound: CCC(=O)c1cc(C2(c3cccc(-c4cccnc4F)c3)N=C(N)N(C)C2=O)cn1C (centres unmarked)
OUTPUT: 107 to 111 °C

INPUT: Here is the next compound: CCc1cc(C2(c3cccc(-c4cncnc4)c3)N=C(N)N(C)C2=O)cs1 (centres unmarked)
OUTPUT: 144 to 146 °C

INPUT: Here is the next compound: CCC(=O)c1cc(C2(c3cccc(-c4cccc(C#N)c4)c3)N=C(N)N(C)C2=O)cn1CC(F)(F)F (centres unmarked)
OUTPUT: 112 to 114 °C

INPUT: Here is the next compound: CC(C)n1cc(C2(c3ccc(F)c(Br)c3)N=C(N)N(C)C2=O)cn1 (centres unmarked)
OUTPUT: 80 to 82 °C

INPUT: Here is the next compound: CN1C(=O)C(c2ccsc2)(c2cccc(OCC3CCCCC3)c2)N=C1N (centres unmarked)
OUTPUT: 88 to 90 °C

INPUT: Here is the next compound: CCn1cc(C2(c3ccc(F)c(-c4cccnc4F)c3)N=C(N)N(C)C2=O)cn1 (centres unmarked)
OUTPUT: 84 to 85 °C

INPUT: Here is the next compound: CN1C(=O)C(c2cccc(-c3cccnc3F)c2)(c2cc(CN3CCCC3)n(CCF)c2)N=C1N (centres unmarked)
OUTPUT: 110 to 120 °C
